# method_description: Pharmacokinetic study: plasma and brain concentrations after oral gavage
# Assay type: in vivo, mice
# reported_conditions: male, C57BL/6, mouse, plasma, po, 100 mg/kg
measured_quantity: k el (s⁻¹)
Supply the numeric figure in s⁻¹, leaving out any unit text.

input: Consider the molecule CC(C)NC(=O)COc1cccc(-c2nc(Nc3ccc4[nH]ncc4c3)c3ccccc3n2)c1 [KD025] and give its measured k el.
output: 5e-05

====

# method_description: Pharmacokinetic study: plasma and brain concentrations after oral gavage
# Assay type: in vivo, mice
# reported_conditions: male, C57BL/6, mouse, plasma, po, 100 mg/kg
measured_quantity: AUC(0-t) (ng·h/mL)
Form entry: value (ng·h/mL) — number only.

input: // AUC(0-t) lookup, key: `CC(C)NC(=O)COc1cccc(-c2nc(Nc3ccc4[nH]ncc4c3)c3ccccc3n2)c1`
output: 42300
